# System: LOLPE
# assay_text: Biological efficacy, post-emergence glasshouse test (Table 2)
# Assay type: in vivo
# cond: 1000 g/ha, after 12 days
# maps each entry to its score (100=total damage to plant, 0=no damage to plant)
value_type: score (100=total damage to plant, 0=no damage to plant)

smiles_repr | system_tested | numeric_value
CCOC(=O)C(F)(F)c1cccc2cccc(C(F)(F)C(=O)OCC)c12 | LOLPE | 0
CCOc1ccccc1C(F)(F)C(=O)O | LOLPE | 0
CC(C)Oc1ccccc1C(F)(F)C(=O)O | LOLPE | 10
O=C(O)C(F)(F)c1ccc(OC(F)(F)F)cc1 | LOLPE | 0
COc1cc(C(F)(F)C(=O)O)ccc1C | LOLPE | 0
CCc1c(Cl)cccc1C(F)(F)C(=O)O | LOLPE | 0
COc1ccc(F)cc1C(F)(F)C(=O)O | LOLPE | 20
CCc1ccccc1C(F)(F)C(=O)O | LOLPE | 0
COc1cc(F)c(C(F)(F)C(=O)O)cc1Cl.N | LOLPE | 0
O=C(O)C(F)(F)c1cccc2ccccc12 | LOLPE | 0
